system: Escherichia coli TOP10; assay: shrunken log2 fold change of peptide-encoding DNA abundance (4.5 h post-induction vs induction); higher = less antimicrobial activity (less host growth inhibition); settings: time post-induction: 4.5 h; library: site-saturation at positions 5, 18, 19, 20;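 also: peptides expressed intracellularly from a pBAD plasmid library in pooled LB shake-flask culture, induced with 0.3% L-arabinose, DNA abundance read by NGS, three biological replicates, DESeq2 with apeglm shrinkage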
attribute-measured: shrunken log2 fold change

{"sequence-input": "RRIRVRPPRLPRPRPRPISQPRP", "attribute-measured": "shrunken log2 fold change", "value-measured": -0.261}
{"sequence-input": "RRIRYRPPRLPRPRPRPKWAPRP", "attribute-measured": "shrunken log2 fold change", "value-measured": -0.0552}
{"sequence-input": "RRIRLRPPRLPRPRPRPCKLPRP", "attribute-measured": "shrunken log2 fold change", "value-measured": -0.114}
{"sequence-input": "RRIRWRPPRLPRPRPRPQRFPRP", "attribute-measured": "shrunken log2 fold change", "value-measured": 0.206}
{"sequence-input": "RRIRKRPPRLPRPRPRPRMPPRP", "attribute-measured": "shrunken log2 fold change", "value-measured": 0.363}
{"sequence-input": "RRIRARPPRLPRPRPRPIFLPRP", "attribute-measured": "shrunken log2 fold change", "value-measured": -0.0119}
{"sequence-input": "RRIRPRPPRLPRPRPRPINFPRP", "attribute-measured": "shrunken log2 fold change", "value-measured": -0.168}
{"sequence-input": "RRIRPRPPRLPRPRPRPSQYPRP", "attribute-measured": "shrunken log2 fold change", "value-measured": -0.415}
